Biological target: Rap guanine nucleotide exchange factor 4 (Homo sapiens) (UniProt Q8WZA2)
Sequence (Q8WZA2 whole entry, looked up): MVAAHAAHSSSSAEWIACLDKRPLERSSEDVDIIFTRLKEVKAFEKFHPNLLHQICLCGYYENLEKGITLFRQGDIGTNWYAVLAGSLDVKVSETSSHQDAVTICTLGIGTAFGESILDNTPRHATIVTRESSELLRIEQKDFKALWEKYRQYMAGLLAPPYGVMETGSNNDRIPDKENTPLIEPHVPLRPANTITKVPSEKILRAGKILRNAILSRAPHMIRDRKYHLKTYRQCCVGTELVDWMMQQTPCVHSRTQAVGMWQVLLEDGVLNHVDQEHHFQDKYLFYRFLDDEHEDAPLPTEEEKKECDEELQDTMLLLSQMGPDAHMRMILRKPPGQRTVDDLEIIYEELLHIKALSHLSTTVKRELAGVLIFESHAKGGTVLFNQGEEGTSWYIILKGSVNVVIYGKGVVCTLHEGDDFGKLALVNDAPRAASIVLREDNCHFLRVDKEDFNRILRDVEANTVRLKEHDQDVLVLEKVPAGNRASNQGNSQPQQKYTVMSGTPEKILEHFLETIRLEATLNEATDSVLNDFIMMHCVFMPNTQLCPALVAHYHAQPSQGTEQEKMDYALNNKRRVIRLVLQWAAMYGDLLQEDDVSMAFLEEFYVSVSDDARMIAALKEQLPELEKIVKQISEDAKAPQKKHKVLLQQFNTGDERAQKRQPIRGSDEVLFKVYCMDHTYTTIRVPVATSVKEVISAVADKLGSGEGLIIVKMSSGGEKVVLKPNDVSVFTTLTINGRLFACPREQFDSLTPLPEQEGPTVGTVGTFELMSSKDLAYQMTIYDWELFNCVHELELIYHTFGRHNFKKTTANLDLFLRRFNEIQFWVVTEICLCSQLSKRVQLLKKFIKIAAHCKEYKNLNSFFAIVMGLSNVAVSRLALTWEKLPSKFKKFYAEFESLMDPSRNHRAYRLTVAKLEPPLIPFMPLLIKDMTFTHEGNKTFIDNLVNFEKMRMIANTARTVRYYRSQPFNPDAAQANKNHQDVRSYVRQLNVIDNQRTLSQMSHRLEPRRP
Test: Confirmatory qHTS for antagonist of cAMP-regulated guanine nucleotide exchange factor 4 (EPAC2) (AID 1645885); also: nearly all actives have a fitted effect of over 25% in size
Conditions: EPAC2 Rap1B-BODIPY-GDP exchange fluorescence, biochemical; series mostly up to 114 µM
Inconclusive results are not listed. Active and inactive are the calls of the source. Calls follow the shape of the dose curve; as a rule, active = well fitted inhibition curve with a large enough effect; inconclusive = small, poorly fitted or top-dose-only effect; inactive = no such curve, though single readings can be large or run the other way.
Respond only with the outcome that fits, drawn from active, inactive

Cc1ccccc1-c1ccc2ncnc(N(C)C)c2c1 :: inactive
CC1(C)[C@@H](O)CC[C@]2(C)C3C(=O)C=C4C5C[C@@](C)(C(=O)O)CC[C@]5(C)CC[C@@]4(C)[C@]3(C)CC[C@@H]12 (stereo not given in full) :: active
COc1ccc(-n2c(=O)c(-c3cccs3)nc3cnc(Nc4cccc(OC)c4)nc32)cc1 :: inactive
COc1ccccc1CNc1nc(-c2cccc(C#N)c2)nc2ccccc12 :: inactive

Would you kindly look at the next entry?
-- ask For this compound, state the assay outcome: "COc1ccc(CNc2nc(-c3ccc4c(c3)OCO4)nc3ccccc23)c(OC)c1"
-- reply inactive

* * *

Biological target: Cytochrome P450 1A2 (Homo sapiens)
Experiment: p450-cyp1a2 (AID 410)
Conditions: recombinant CYP1A2, luciferin-ME demethylation, luminescence; series mostly up to 57 µM
Results filed as inconclusive are left out. Calls of active or inactive are those of the source. The call rests on the fitted dose curve.
Respond only with the outcome that fits, drawn from 1 = active, 0 = inactive

Below, 3 compounds whose answers are already recorded.
CN1CC[C@@]2(CCCN(C(=O)c3cccn3C)C2)C1 :: 0
COCCn1c(=O)c(-c2cccc(F)c2)nc2cncnc21 :: 1
COc1ccccc1-c1ccc2ncnc(NCCNC(C)=O)c2c1 :: 1

Would you kindly look at the next entry?
-- ask For this compound, state the assay outcome: "FC(F)(F)c1cc(CN2CCC3(CCNCC3)CC2)cc(C(F)(F)F)c1"
-- reply 0

* * *

Test: qHTS Assay for Identification of Small Molecule Agonists for Hypoxia Response Element Signaling Pathway (AID 914); also: potency is read from the fitted curve at half-maximal effect
Details: ME-180 (cervical carcinoma) HRE-bla reporter, beta-lactamase ratio, CoCl2, 17 h
Records with an inconclusive call do not appear. Calls of active or inactive are those of the source. Calls follow the shape of the dose curve; as a rule, active = well fitted activation curve with a large enough effect in the signal ratio, with a control signal flat (not every such curve was filed as active); inconclusive = small, poorly fitted or top-dose-only effect, or effect the other way, or a change in a side signal; inactive = flat fitted curve, though single readings scatter; the % refers to the signal ratio.
The entries below come with measured Potency values attached.

N#CCCn1c(=O)c(-c2ccc(F)cc2)nc2cnc(N3CCNCC3)nc21 :: 3.16 µM (active)
COc1ccc(-n2c(=O)c(-c3ccc(Cl)cc3)nc3cnc(N4CCOCC4)nc32)cc1 :: 0.631 µM (active)
COc1cccc(Cn2c(=O)c(-c3ccc(Cl)cc3)nc3cnc(N(C)C)nc32)c1 :: 0.316 µM (active)
COc1ccc(-n2c(=O)c(-c3cc(F)cc(F)c3)nc3cnc(N4CCOCC4)nc32)cc1 :: 1.58 µM (active)
Cn1c(=O)c(-c2cc(F)cc(F)c2)nc2cnc(N3CCNCC3)nc21 :: 3.16 µM (active)

-- ask Consider the molecule "COc1ccc(-c2nc3cnc(N4CCNCC4)nc3n(C3CC3)c2=O)cc1" . State its measured Potency.
-- reply 3.16 µM (active)

-- ask Consider the molecule "CN(C)c1ncc2nc(-c3ccc(Cl)cc3)c(=O)n(Cc3ccc(F)cc3)c2n1" . State its measured Potency.
-- reply 1.26 µM (active)

* * *

Target: Cytochrome P450 3A4 (Homo sapiens) (UniProt P08684)
Sequence (P08684 whole entry, looked up): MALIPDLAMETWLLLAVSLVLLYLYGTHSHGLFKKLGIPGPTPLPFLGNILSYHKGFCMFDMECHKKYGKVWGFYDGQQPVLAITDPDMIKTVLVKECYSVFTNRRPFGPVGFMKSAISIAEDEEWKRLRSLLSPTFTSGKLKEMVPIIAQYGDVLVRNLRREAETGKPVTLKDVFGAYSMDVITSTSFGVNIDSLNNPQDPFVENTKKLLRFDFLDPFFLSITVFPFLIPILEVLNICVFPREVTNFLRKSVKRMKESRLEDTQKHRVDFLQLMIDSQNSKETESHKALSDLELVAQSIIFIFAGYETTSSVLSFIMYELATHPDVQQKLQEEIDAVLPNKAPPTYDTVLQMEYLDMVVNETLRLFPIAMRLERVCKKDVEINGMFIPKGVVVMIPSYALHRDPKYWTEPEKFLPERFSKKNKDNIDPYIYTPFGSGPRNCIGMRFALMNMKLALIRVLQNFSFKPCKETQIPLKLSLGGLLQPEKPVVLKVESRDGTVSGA
Assay: qHTS Assay for Inhibitors and Substrates of Cytochrome P450 3A4 (AID 884); also: nearly all actives have a fitted effect of over 50% in size
Conditions: recombinant CYP3A4, Luciferin-PPXE luminescence; series mostly up to 57.1 µM
Records with an inconclusive call do not appear. Calls of active or inactive are those of the source. Calls come from the whole dose curve; as a rule, active = well fitted inhibition curve with a large enough effect; inconclusive = small, poorly fitted or top-dose-only effect; inactive = no such curve, though single readings can be large or run the other way.
Respond only with the outcome that fits, drawn from class 1 for active, class 0 for inactive

CN(C)c1ccc(-c2ccc3ncnc(NC4CC4)c3c2)cc1 :: class 1
CS(=O)(=O)Nc1cccc(-c2cncnc2NCc2ccccc2)c1 :: class 1
COc1ccc(C(=O)N2CCC[C@@]3(CCN(CC(C)C)C3)C2)cc1 :: class 1
COc1ccc2[nH]cc(CCNc3ccnc(-c4ccccc4C)n3)c2c1 :: class 1

-- ask For this compound, state the assay outcome: "Cn1cccc1C(=O)N1CCC2(CC1)CCN(c1ncccn1)CC2"
-- reply class 0

-- ask For this compound, state the assay outcome: "CN1CCN(c2ncc3nc(-c4ccc(Cl)cc4)c(=O)n(C)c3n2)CC1"
-- reply class 0

-- ask For this compound, state the assay outcome: "COc1ccccc1CCn1c(=O)c(-c2cccc(Cl)c2)nc2cncnc21"
-- reply class 1

-- ask For this compound, state the assay outcome: "Cn1cccc1C(=O)N1CCC2(CCN(C(=O)Nc3ccccc3)CC2)CC1"
-- reply class 0

-- ask For this compound, state the assay outcome: "O=C(c1cc(C(F)(F)F)cc(C(F)(F)F)c1)N1CCC[C@@]2(CCN(c3ccncc3)C2)C1"
-- reply class 1

-- ask For this compound, state the assay outcome: "COc1ccccc1CNc1ncnc2ccc(-c3ccc(N(C)C)cc3)cc12"
-- reply class 1

These entries and their values trace back to PubChem BioAssay (NCATS).
